PROTOCOL: small-molecule microarray binders of probe aCHRDL2, primary screen, biochemical, biotinylated probe, 635/667 nm fluorescence (AID 1100)
EXPERIMENTAL SETUP: higher = more signal
// reported composite z-score per item
No unit in the answer, please; the number alone is enough.

COMPOUND	VALUE OBSERVED
C=C(/C(=C/C[C@@H](OC(C)=O)c1ccc(CO)o1)c1cc(C(=O)OC)ccc1OC)C(C)C	-0.256

**Q:** Quick one: give measured composite z-score for CC(C)[C@H]1NC(=O)[C@@]23C(=O)N[C@@H](Cc4ccccc4)C2[C@H](C)[C@@]2(C)O[C@H]2C3/C=C/C/C=C\CNC(=O)[C@H](Cc2ccccc2)NC1=O (stereo partly drawn)
**A:** -0.481

**Q:** For the compound CC1(C)C(=O)C(c2ccccc2)=C2CN3C(=O)N(CCc4ccccc4)C(=O)C3(Cc3ccc(C(F)(F)F)cc3)C=C21 (stereo not drawn) , give its measured composite z-score value.
**A:** 1.12

**Q:** Quickly give me recorded composite z-score for "C=C(CCCC)C(=O)CC[C@@H](OC(=O)c1cccnc1)c1ccc(OCCO)cc1"
**A:** -0.266
